# TEST DESCRIPTION: ABTS antioxidant assay
# CONDITION CONTEXT: IC50 compared to IC50 of trolox
The threshold is inclusive: Trolox Equivalents (μmol/μmol) of exactly 2 μmol/μmol counts as 1; values below receive -1.

These solved cases illustrate the format of a correct answer.
MOLECULE	CLASS ASSIGNMENT
Oc1ccc2c(c1)OC[C@@]1(O)c3ccc(O)cc3O[C@@H]21 (racemic) [Glycinol (+/−), (+) Glycinol]	1
O=c1c(-c2ccc(O)cc2)coc2cc(O)ccc12 [Daidzein, reference compound]	1
CC1(C)C=Cc2c(ccc3c2OC[C@]2(O)c4ccc(O)cc4O[C@H]32)O1 [7 (+)]	-1
CC1(C)C=Cc2c(ccc3c2OC[C@@]2(O)c4ccc(O)cc4O[C@@H]32)O1 [7 (−), Glyceollin I (Natural Glyceollin I)]	-1

Does the molecule CC(C)(C)[Si](C)(C)Oc1ccc2c(c1)OC1c3ccc(O)cc3OCC21O (single isomer, unassigned; (+)) [4 (+), (+) 9-(t-Butyldimethylsilyloxy)-glycinol] have recorded Trolox Equivalents (μmol/μmol) that is 2 μmol/μmol or more?
-1

This collection of values is drawn from patent US8563599B2.
